# remaining activity at 0.1 µM per entry
Biological target: UniProt:P54753
Sequence (P54753 34-998): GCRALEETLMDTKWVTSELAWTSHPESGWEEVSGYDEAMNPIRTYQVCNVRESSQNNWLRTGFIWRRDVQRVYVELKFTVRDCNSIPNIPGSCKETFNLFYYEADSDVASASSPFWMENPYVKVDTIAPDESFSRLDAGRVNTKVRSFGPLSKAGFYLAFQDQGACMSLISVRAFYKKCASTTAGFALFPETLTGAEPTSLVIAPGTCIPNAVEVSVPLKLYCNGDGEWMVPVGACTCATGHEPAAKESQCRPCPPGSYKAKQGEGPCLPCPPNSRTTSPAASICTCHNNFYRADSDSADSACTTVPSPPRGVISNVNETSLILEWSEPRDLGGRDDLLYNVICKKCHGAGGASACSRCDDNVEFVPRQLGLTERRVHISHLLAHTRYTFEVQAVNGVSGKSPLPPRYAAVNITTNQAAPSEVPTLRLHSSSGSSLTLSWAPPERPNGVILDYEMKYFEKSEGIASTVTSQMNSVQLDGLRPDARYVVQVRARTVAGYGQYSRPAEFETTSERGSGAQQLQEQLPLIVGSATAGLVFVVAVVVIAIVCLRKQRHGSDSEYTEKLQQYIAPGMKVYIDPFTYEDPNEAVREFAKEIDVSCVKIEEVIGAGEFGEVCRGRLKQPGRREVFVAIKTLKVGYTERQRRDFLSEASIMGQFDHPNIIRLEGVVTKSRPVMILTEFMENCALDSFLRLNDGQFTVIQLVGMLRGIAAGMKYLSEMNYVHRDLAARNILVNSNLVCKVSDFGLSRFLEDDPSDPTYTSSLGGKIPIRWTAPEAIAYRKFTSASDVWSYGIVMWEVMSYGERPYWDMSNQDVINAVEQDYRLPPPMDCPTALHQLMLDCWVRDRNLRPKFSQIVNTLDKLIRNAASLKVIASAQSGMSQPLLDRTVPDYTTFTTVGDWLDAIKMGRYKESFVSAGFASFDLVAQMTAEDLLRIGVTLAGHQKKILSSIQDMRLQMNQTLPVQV
Test: EphB3 radiometric kinase activity assay (33P ATP filter binding)
Type: biochemical
Conditions: 100 nM compound; read-out: EphB3 % act 100 nM
Write the value in % as a bare number.

Consider the reported remaining activity at 0.1 µM for these molecules:
COc1ccc(-c2ccc3ncc(C(=O)Nc4ccccc4Cl)n3c2)cc1 ... 88.6
COc1ccc(Cl)c(NC(=O)c2cnc3ccc(C4CCNCC4)cn23)c1 ... 91.4
O=C(Nc1ccccc1Cl)c1cnc2ccc(C3CCNCC3)cn12 ... 14
O=C(Nc1ccccc1Cl)c1cnc2ccc(-c3cccnc3)cn12 ... 16

## Task Using known records, supply remaining activity at 0.1 µM for `O=C(Nc1ccccc1Cl)c1cnc2ccc(-c3ncccn3)cn12`
## Result 55

## Task Using known records, supply remaining activity at 0.1 µM for `O=C(Nc1ccccc1Cl)c1cnc2ccc(-c3ccccc3O)cn12`
## Result 42.9

## Task Using known records, supply remaining activity at 0.1 µM for `NCc1ccc(-c2ccc3ncc(C(=O)Nc4ccccc4Cl)n3c2)cc1`
## Result 6

## Task Using known records, supply remaining activity at 0.1 µM for `COc1cccc(NC(=O)c2cnc3ccc(C4CCNCC4)cn23)c1Cl`
## Result 102
